test system: A498; assay: Cytotoxicity against A498 Tumor cell line in SRB Cell viability test; type: functional, cell-based; conditions: Homo sapiens

{"columns": ["compound", "unit-of-measurement", "bound-sign", "IC50"],
 "data": [
  ["CC(=O)O[C@H]1C(=O)[C@@]2(C)[C@H]([C@H](OC(=O)c3ccccc3)[C@]3(O)CC(OC(=O)[C@H](OC(=O)OCc4ccc(NC(=O)[C@H](CCCCN)NC(=O)[C@H](CC(C)C)NC(=O)[C@H](N)C(C)C)cc4)C(NC(=O)c4ccccc4)c4ccccc4)C(C)=C1C3(C)C)[C@]1(OC(C)=O)CO[C@@H]1C[C@@H]2O.Cl.Cl (stereo not given in full)", "µg/mL", ">", 0.06],
  ["CC(=O)O[C@H]1C(=O)[C@@]2(C)[C@H]([C@H](OC(=O)c3ccccc3)[C@]3(O)C[C@H](OC(=O)[C@H](O)[C@@H](NC(=O)c4ccccc4)c4ccccc4)C(C)=C1C3(C)C)[C@]1(OC(C)=O)CO[C@@H]1C[C@@H]2O", "µg/mL", "<", 0.003],
  ["CC(=O)O[C@H]1C(=O)[C@@]2(C)[C@H]([C@H](OC(=O)c3ccccc3)[C@]3(O)CC(OC(=O)[C@H](OC(=O)N(C)CCN(C)C(=O)[C@H](CCCCN)NC(=O)[C@H](CC(C)C)NC(=O)[C@H](N)C(C)C)C(NC(=O)c4ccccc4)c4ccccc4)C(C)=C1C3(C)C)[C@]1(OC(C)=O)CO[C@@H]1C[C@@H]2O.Cl.Cl (stereo not given in full)", "µg/mL", "=", 0.045],
  ["CC(=O)O[C@H]1C(=O)[C@@]2(C)[C@H]([C@H](OC(=O)c3ccccc3)[C@]3(O)CC(OC(=O)[C@H](OC(=O)N(C)CCN(C)C(=O)[C@H](CCCCN)NC(=O)[C@H](Cc4ccccc4)NC(=O)[C@@H](C)N)C(NC(=O)c4ccccc4)c4ccccc4)C(C)=C1C3(C)C)[C@]1(OC(C)=O)CO[C@@H]1C[C@@H]2O.Cl.Cl (stereo not given in full)", "µg/mL", "=", 0.038],
  ["CC(=O)O[C@H]1C(=O)[C@@]2(C)[C@H]([C@H](OC(=O)c3ccccc3)[C@]3(O)CC(OC(=O)[C@H](OC(=O)NCCNC(=O)[C@H](CCCCN)NC(=O)[C@H](Cc4ccccc4)NC(=O)[C@@H](C)N)C(NC(=O)c4ccccc4)c4ccccc4)C(C)=C1C3(C)C)[C@]1(OC(C)=O)CO[C@@H]1C[C@@H]2O.Cl.Cl (stereo not given in full)", "µg/mL", "=", 0.04]
]}
